target: Recombinant human MALT-1 (amino acids 340-824) (Homo sapiens (Human)); experiment: MALT-1 inhibition assay (fluorogenic substrate Ac-LRSR-Rh110-DP); details: recombinant human MALT-1, substrate Ac-LRSR-Rh110-DP
Sequence (Q9UDY8 340-824): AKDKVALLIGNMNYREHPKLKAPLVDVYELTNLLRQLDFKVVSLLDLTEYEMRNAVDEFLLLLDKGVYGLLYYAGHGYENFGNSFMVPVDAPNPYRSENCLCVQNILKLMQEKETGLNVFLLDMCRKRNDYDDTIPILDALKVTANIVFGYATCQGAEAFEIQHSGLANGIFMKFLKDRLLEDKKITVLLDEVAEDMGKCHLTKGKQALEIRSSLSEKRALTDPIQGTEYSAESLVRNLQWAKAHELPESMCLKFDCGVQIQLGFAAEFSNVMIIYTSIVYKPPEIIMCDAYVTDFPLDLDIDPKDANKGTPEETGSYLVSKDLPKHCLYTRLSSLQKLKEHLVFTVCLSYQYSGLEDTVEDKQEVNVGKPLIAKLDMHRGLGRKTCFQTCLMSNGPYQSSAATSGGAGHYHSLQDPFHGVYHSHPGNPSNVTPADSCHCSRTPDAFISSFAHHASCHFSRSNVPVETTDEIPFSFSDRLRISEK
observationType: IC50 (nM)
Number only, in nM; omit the unit.

Would you please look over these solved cases?
# molecule, observationType, unitAbbrev, readoutNumber
records = [
    ("CN(C(=O)[C@@H]1COC(=O)N1C)[C@@H](c1ccc(N2CCCc3c2cnc2cc(Cl)nn32)cc1)C(F)(F)F (relative stereo) [CPD0073571]", "IC50", "nM", 52),
    ("COc1ccc2ncc(Nc3ccc([C@H](N(C)C(=O)[C@H]4CC[S@@](=N)(=O)CC4)C(F)(F)F)cc3)c([C@H](C)OC)c2n1 (stereo in doubt) [CPD0073129]", "IC50", "nM", 64),
]

So for C[C@@H]1CCN(c2ccc([C@H](N(C)C(=O)[C@@H]3CCC(=O)NC3)C(F)(F)F)cc2)c2cnc3cc(Cl)nn3c21 (relative stereo) [CPD0074561] , the logged IC50 turned out to be 29
